Target: EGFR L858R/T790M/C797S (Homo sapiens, UniProt P00533, C797S/L858R/T790M)
Sequence (P00533 25-1210 T790M/C797S/L858R): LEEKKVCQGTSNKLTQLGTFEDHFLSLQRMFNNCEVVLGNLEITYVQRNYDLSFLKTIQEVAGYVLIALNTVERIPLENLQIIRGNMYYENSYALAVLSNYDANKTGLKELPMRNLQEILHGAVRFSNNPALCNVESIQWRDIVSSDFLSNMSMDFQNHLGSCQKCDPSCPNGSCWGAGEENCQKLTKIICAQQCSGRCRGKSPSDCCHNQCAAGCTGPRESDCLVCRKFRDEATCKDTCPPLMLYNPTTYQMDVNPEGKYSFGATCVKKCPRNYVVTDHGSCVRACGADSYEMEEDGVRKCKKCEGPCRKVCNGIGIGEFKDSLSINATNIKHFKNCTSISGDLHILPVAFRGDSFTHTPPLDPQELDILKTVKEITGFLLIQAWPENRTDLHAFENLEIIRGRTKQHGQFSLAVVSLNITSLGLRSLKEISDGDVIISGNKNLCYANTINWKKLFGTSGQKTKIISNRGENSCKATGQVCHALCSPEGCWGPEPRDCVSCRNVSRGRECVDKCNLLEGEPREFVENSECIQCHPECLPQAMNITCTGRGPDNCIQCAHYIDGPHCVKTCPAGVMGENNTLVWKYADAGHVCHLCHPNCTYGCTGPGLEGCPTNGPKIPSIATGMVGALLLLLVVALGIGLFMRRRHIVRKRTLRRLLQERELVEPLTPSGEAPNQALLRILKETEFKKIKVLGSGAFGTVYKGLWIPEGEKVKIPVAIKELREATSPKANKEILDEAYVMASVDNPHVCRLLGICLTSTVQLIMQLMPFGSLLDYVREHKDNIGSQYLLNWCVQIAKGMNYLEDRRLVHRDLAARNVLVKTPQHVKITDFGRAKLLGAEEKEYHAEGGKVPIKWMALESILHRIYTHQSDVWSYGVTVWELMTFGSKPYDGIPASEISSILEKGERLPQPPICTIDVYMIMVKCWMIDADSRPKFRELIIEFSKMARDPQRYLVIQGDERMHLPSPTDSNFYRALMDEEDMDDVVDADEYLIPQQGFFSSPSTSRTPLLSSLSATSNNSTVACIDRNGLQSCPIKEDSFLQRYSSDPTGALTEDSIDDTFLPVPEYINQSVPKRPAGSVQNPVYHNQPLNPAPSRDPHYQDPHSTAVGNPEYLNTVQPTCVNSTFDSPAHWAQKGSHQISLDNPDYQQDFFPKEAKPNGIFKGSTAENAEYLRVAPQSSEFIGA
Assay: Biochemical EGFR kinase assay (Lance Ultra TR-FRET), triple mutant L858R/T790M/C797S
Settings: Km ATP; read-out: IC50 L858R/T790M/C797S (nM) Km ATP
Each record gets a class by IC50: low band (below 0.3 nM), middle band (0.3 nM to below 1 nM), high band (1 nM or more)

See these solved cases before continuing.
# compound, category
measured = [
    ("CC1(O)CCC(Oc2cc(Nc3ccnc(-c4cnn(S(=O)(=O)C5CC5)c4)n3)ncc2-c2ccn(C(F)F)n2)CC1 (stereo not drawn)", "low band"),
    ("O=S(=O)(C1CC1)n1cc(-c2nccc(Nc3cc(N[C@H]4CCC[C@H](O)C4)c(-c4ccn(C(F)F)n4)cn3)n2)cn1", "low band"),
    ("CN(C)C(=O)C[C@H]1CC[C@@H](Nc2cc(Nc3ccnc(-c4cnn(S(=O)(=O)C5CC5)c4)n3)ncc2-c2cc(C(F)(F)F)n(C)n2)CC1", "high band"),
    ("C[C@]1(O)CC[C@@H](Nc2cc(Nc3ccnc(-c4cnn(S(=O)(=O)C5CC5)c4)n3)ncc2-c2ccn(C(F)(F)F)n2)CC1", "middle band"),
    ("O=S(=O)(C1CC1)n1cc(-c2nccc(Nc3cc(OC4CCC(O)C4)c(-c4ccn(C(F)F)n4)cn3)n2)cn1 (stereo not drawn)", "high band"),
    ("CC1(O)CCC(Nc2cc(Nc3ccnc(-c4cnn(C5CCCCO5)c4)n3)ncc2-c2ccn(C(F)F)n2)CC1 (stereo not drawn)", "middle band"),
    ("CCS(=O)(=O)n1ccc(-c2nccc(Nc3cc(N[C@H]4CC[C@@](C)(O)CC4)c(-c4ccn(C(F)F)n4)cn3)n2)n1", "high band"),
    ("CS(=O)(=O)N1CC=C(c2nccc(Nc3cc(N[C@H]4CC[C@@](C)(O)CC4)c(-c4ccn(C(F)F)n4)cn3)n2)CC1", "high band"),
]

Query: Where would CS(=O)(=O)Cn1cc(-c2nccc(Nc3cc(N[C@H]4CC[C@@](C)(O)CC4)c(-c4ccn(C(F)F)n4)cn3)n2)cn1 land among the classes by reported IC50?
Reply: high band
